Kindly state AC50 for each of the entries shown.
Test system: MYB mRNA
Assay: Splicing RT-qPCR assay, MYB canonical (CJ) and alternative (AJ) junction mRNA
Assay type: cell-based, human
Conditions: Homo sapiens, 24 h, A673 or K562 cells, 24 hours compound treatment, RT-qPCR; read-out: MYB AJ (AC50, increase in alternative junction mRNA)
Method: Compounds described herein were used to modulate RNA transcript abundance in cells. The expression of a target mRNA was measured by detecting the formation of an exon-exon junction in the canonical transcript (CJ). A compound mediated exon-inclusion event was detected by observing an increase in formation of a new junction with an alternative exon (AJ). Real-time qPCR assays were used to detect these splicing switches and interrogate the potency of various compounds towards different target genes. […]

As a guide, the following entries are already answered.
[[record]]
compound = "Cn1cc2c(N3CCNCC3)ccc(C(=O)Nc3cc(F)c4nc(CF)oc4c3)c2n1 [Compound 514]"
target_or_system = "MYB mRNA"
measurement_type = "AC50"
result = "< 100 nM"

[[record]]
compound = "Cc1cn2cc(NC(=O)c3ccc(N4CCNCC4)c4cn(C(C)C)nc34)cc(F)c2n1 [Compound 290]"
target_or_system = "MYB mRNA"
measurement_type = "AC50"
result = "100 to 1000 nM"


Prompt line: Given the compound Cc1cn2cc(NC(=O)c3ccc(N4CC[C@@H](N5CCOCC5)C4)c4cn(C)nc34)cc(F)c2n1 [Compound 552] , what is its reported AC50?
Response line: 100 to 1000 nM

----------
Test system: Target C mRNA
Test: Splicing RT-qPCR gene panel, Target C canonical junction (CJ) mRNA
Assay type: cell-based, human
Conditions: Homo sapiens, Tables 4A/4B, read-out: Target C (IC50, decrease in CJ mRNA, gene panel)
Method: Compounds described herein were used to modulate RNA transcript abundance in cells. The expression of a target mRNA was measured by detecting the formation of an exon-exon junction in the canonical transcript (CJ). A compound mediated exon-inclusion event was detected by observing an increase in formation of a new junction with an alternative exon (AJ). Real-time qPCR assays were used to detect these splicing switches and interrogate the potency of various compounds towards different target genes. […]
Structures can show the parent of a compound that is named as a salt.
measurement type: IC50

As a guide, the following entries are already answered.
[[record]]
compound = "CC1=CC2=NC(C)=NC2C=C1NC(=O)c1ccc(N2CCNCC2)c2cn(C)nc12 (stereo not drawn)"
result = "> 10 µM"

[[record]]
compound = "Cc1cn2cc(NC(=O)c3ccc(C4CCNCC4)c4c3OCC4)cc(F)c2n1"
result = "1 to 10 µM"

[[record]]
compound = "Cc1cn2cc(NC(=O)c3ccc(N(C)C4CC(C)(C)NC(C)(C)C4)c4cc(C)oc34)cc(F)c2n1"
result = "> 10 µM"


# per-item lookup of IC50; items listed below
1. Cc1c(O)c(NC(=O)c2ccc(N3CCNCC3)c3cn(C)nc23)cc2cn(C)nc12 [Compound 325, hydrochloride]
2. Cc1cn2nc(NC(=O)c3ccc(C4CCNCC4)c4cc(C)oc34)cc(C)c2n1
3. COc1c(NC(=O)c2ccc(N3CCNCC3)c3cn(C)nc23)cc2cn(C)nc2c1C

Response line:
["> 10 µM", "> 10 µM", "> 10 µM"]

The reported numbers originate from patent US20250154169A1.
